The reported numbers originate from patent US10633379B2.

Biological target: UniProt O60885
Experiment: TR-FRET bromodomain binding assay, BRD4 BDI
Settings: mean Ki, calculated from IC50, probe Kd and probe concentration
Description: A time-resolved fluorescence resonance energy transfer (TR-FRET) assay was used to determine the affinities of compounds of the Examples listed in Table 1 for each bromodomain of BRD4. His-tagged first (BDI: amino acids K57-E168) and second (BDII: amino acids E352-M457) bromodomains of BRD4 were expressed and purified. […] After a one-hour equilibration at room temperature, TR-FRET ratios were determined using an Envision multilabel plate reader (Ex 340, Em 495/520). […]
ENDPOINT_LABEL: Ki (nM)
Give just the number in nM; leave the unit off.

These recorded examples may help you get a feel for the data.
INSERT INTO assay_data (molecule, target_of_assay, endpoint_label, numeric_result) VALUES
  ('CCNC(=O)c1cc2c(-c3cc(C(C)(C)O)ccc3Oc3c(C)cccc3C(F)F)cn(C)c(=O)c2[nH]1 [Example 70]', 'UniProt O60885', 'Ki', 1340),
  ('CCNC(=O)c1cc2c(-c3cc(C(C)(C)O)c(F)cc3Oc3c(C)cc(F)cc3C)cn(C)c(=O)c2[nH]1 [Example 65]', 'UniProt O60885', 'Ki', 222),
  ('CCNC(=O)c1cc2c(-c3cc(C(C)(C)O)ccc3Oc3c(C)cc(F)cc3C(F)F)cn(C)c(=O)c2[nH]1 [Example 98]', 'UniProt O60885', 'Ki', 682),
  ('Cc1cccc(Cl)c1Oc1ncc(C(C)(C)O)cc1-c1cn(C)c(=O)c2[nH]c(C(=O)NC(C)(C)C)cc12 [Example 37]', 'UniProt O60885', 'Ki', 195),
  ('Cc1cccc(C)c1Oc1ccc(C(C)(C)O)cc1-c1cn(C)c(=O)c2[nH]c(C(=O)NC(C)(C)C)cc12 [Example 32]', 'UniProt O60885', 'Ki', 599);

Task: Could you share which Ki value was measured for CCNC(=O)c1cc2c(-c3cc(C(C)(C)O)cnc3Oc3c(C)cccc3Cl)cn(C)c(=O)c2[nH]1 [Example 29] ?
Output: 594

Task: Item: Cc1cccc(Cl)c1Oc1ncc(C(C)(C)O)cc1-c1cn(C)c(=O)c2[nH]c(C(=O)NC(C)(C)C(F)(F)F)cc12 [Example 38]
Output: 241

Task: Entry to check: Cc1cc(Cl)cc(C)c1Oc1ncc(C(C)(C)O)cc1-c1cn(C)c(=O)c2[nH]c(C(=O)NC(C)(C)C)cc12 [Example 95]
Output: 333

Task: Moving on to CCNC(=O)c1cc2c(-c3cc(C(O)(CC)Cc4ccc(F)cc4)cnc3Oc3c(C)cccc3C)cn(C)c(=O)c2[nH]1 (centres unmarked) [Example 15]
Output: 1840

###

biological target: BRD4 (BDII_E352-M457) (Homo sapiens (Human)); test: TR-FRET bromodomain binding assay, BRD4 BDII; settings: mean Ki, calculated from IC50, probe Kd and probe concentration
ENDPOINT_LABEL: Ki

INSERT INTO assay_data (compound, result) VALUES
  ('CCNC(=O)c1cc2c(-c3cc(C(C)(C)O)ccc3Oc3c(C)cccc3F)cn(C)c(=O)c2[nH]1', '1.1 nM'),
  ('CCNC(=O)c1cc2c(-c3cc(C(C)(C)O)cnc3-c3ccc(F)cc3F)cn(C)c(=O)c2[nH]1', '1.7 nM'),
  ('CCNC(=O)c1cc2c(-c3cc(C(O)(CC)c4ccc(F)cc4)cnc3Oc3c(C)cccc3C)cn(C)c(=O)c2[nH]1 (stereo not shown)', '3.8 nM'),
  ('CCNC(=O)c1cc2c(-c3cc(C(C)(C)O)ccc3Oc3c(C)cccc3Cl)cn(C)c(=O)c2[nH]1', '1.9 nM'),
  ('CCNC(=O)c1cc2c(-c3cc(C(C)(O)CO)ccc3Oc3c(C)cccc3C)cn(C)c(=O)c2[nH]1 (stereo not shown)', '1.4 nM');

Task: What measured Ki goes with CCNC(=O)c1cc2c(-c3cc(C(C)(O)CCO)ccc3Oc3c(C)cccc3C)cn(C)c(=O)c2[nH]1 (stereo not shown) ?
Output: 1.1 nM

Task: How about this compound: Cc1cc(S(C)(=O)=O)cc(C)c1Oc1ccc(C(C)(C)O)cc1-c1cn(C)c(=O)c2[nH]c(C(=O)NC(C)(C)C)cc12
Output: 2 nM
